- Test system: rumen contents (lactic acid accumulation)
- test: Inhibition of lactic acid accumulation, second batch culture fermentation of rumen contents with glucose
- Assay type: cell-based, bovine (rumen fistulated)
- cond: Table 8; 20 μg/ml; 6 h, 39° C.; 0 μg/ml: 40.47
measuredParameter: Lactic Acid Accumulation (μ mol/ml)
Quick note: give the figure in μ mol/ml, leave out the unit.

Some solved entries appear below for comparison.
CCC(=O)OC(C(C)C(=O)O)C(C)C1OC2(CCC(C)(C3CCC(C)(C4OC(C5OC(O)(COC(=O)C6CCC6)C(C)CC5C)CC4C)O3)O2)CC(O)C1C (stereo not drawn) [Cyclobutylcarboxylate, laidlomycin cyclobutylcarboxylate]
4.75
CCC(=O)OC(C(C)C(=O)O)C(C)C1OC2(CCC(C)(C3CCC(C)(C4OC(C5OC(O)(COC(=O)C6CCCC6)C(C)CC5C)CC4C)O3)O2)CC(O)C1C (stereo not drawn) [Cyclopentylcarboxylate, laidlomycin cyclopentylcarboxylate]
9.66

We next turn to a different compound, shown below.
Short answer for CCC(=O)OC(C(C)C(=O)O)C(C)C1OC2(CCC(C)(C3CCC(C)(C4OC(C5OC(O)(COC(C)=O)C(C)CC5C)CC4C)O3)O2)CC(O)C1C (stereo not drawn) : Lactic Acid Accumulation (μ mol/ml) was 5.28

---

- Tested on: rumen microorganisms (mixed microbial population of rumen contents)
- test: Enhancement of intraruminal propionic acid production, batch culture fermentation of rumen contents
- Assay type: cell-based, bovine (rumen-fistulated)
- cond: Table 7; 5 μg/ml; 9 h, 39° C.; 0 μg/ml: 36.1
measuredParameter: % Propionic Acid (%)
// return numeric value only (unit: %, not printed)

Record CCC(=O)OC(C(C)C(=O)O)C(C)C1OC2(CCC(C)(C3CCC(C)(C4OC(C5OC(O)(COC(=O)C6CC6)C(C)CC5C)CC4C)O3)O2)CC(O)C1C (stereo not drawn) [Cyclopropylcarboxylate, laidlomycin cyclopropylcarboxylate] . Reported % Propionic Acid: 50.9

Query CCC(=O)OC(C(C)C(=O)O)C(C)C1OC2(CCC(C)(C3CCC(C)(C4OC(C5OC(O)(COC(C)=O)C(C)CC5C)CC4C)O3)O2)CC(O)C1C (stereo not drawn) [L. C2] yields % Propionic Acid of 52.2

The measured % Propionic Acid associated with CCC(=O)OC(C(C)C(=O)O)C(C)C1OC2(CCC(C)(C3CCC(C)(C4OC(C5OC(O)(COC(=O)C6CCCC6)C(C)CC5C)CC4C)O3)O2)CC(O)C1C (stereo not drawn) [Cyclopentylcarboxylate, laidlomycin cyclopentylcarboxylate] reads 51.1

---

- Test system: rumen microorganisms (mixed microbial population of rumen contents)
- test: Enhancement of intraruminal propionic acid production, batch culture fermentation of rumen contents
- Assay type: cell-based, bovine (rumen-fistulated)
- cond: Table 7; 1.25 μg/ml; 9 h, 39° C.; 0 μg/ml: 36.1
Some compounds, each annotated with its measured % Propionic Acid.
Number only, in %; omit the unit.

CCC(=O)OC(C(C)C(=O)O)C(C)C1OC2(CCC(C)(C3CCC(C)(C4OC(C5OC(O)(COC(=O)C6CCCC6)C(C)CC5C)CC4C)O3)O2)CC(O)C1C (stereo not drawn) [Cyclopentylcarboxylate, laidlomycin cyclopentylcarboxylate]
51.9
CCC(=O)OC(C(C)C(=O)O)C(C)C1OC2(CCC(C)(C3CCC(C)(C4OC(C5OC(O)(COC(=O)C6CCC6)C(C)CC5C)CC4C)O3)O2)CC(O)C1C (stereo not drawn) [Cyclobutylcarboxylate, laidlomycin cyclobutylcarboxylate]
50.0

Turning now to a further record.
Please fill in: % Propionic Acid reported for CCC(=O)OC(C(C)C(=O)O)C(C)C1OC2(CCC(C)(C3CCC(C)(C4OC(C5OC(O)(COC(=O)C6CCCCC6)C(C)CC5C)CC4C)O3)O2)CC(O)C1C (stereo not drawn) [Cyclohexylcarboxylate, laidlomycin cyclohexylcarboxylate] = 50.1

Reference source: patent US4431665A
